assay: NCI Yeast Anticancer Drug Screen. Data for the wt1 strain (AID 149);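 also: 0% = growth of vehicle-treated wt1 cultures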; conditions: S. cerevisiae wt1 strain (SPY 50644) growth inhibition; at 1.2 µM; active compounds read high
The panel holds about 79,000 compounds, 15% with a hit somewhere; the sample as a whole holds those more often. Calls of active or inactive are those of the source. Rule as the data show it: active = growth inhibition above about 70%; inactive = the rest.
attribute_measured: growth inhibition

(Q) Reported growth inhibition for CCOC(=O)C1C2c3ccccc3C(c3ccccc32)C1C(=O)OCC (stereo not drawn) : what is it?
(A) -1% (inactive)

(Q) Reported growth inhibition for [N-]=[N+]=C1C(Cl)=C(Cl)C(Cl)=C1Cl : what is it?
(A) -3% (inactive)

(Q) Reported growth inhibition for Cc1ccc2c(c1N)C(=O)c1ccccc1C2=O : what is it?
(A) -3% (inactive)

(Q) Reported growth inhibition for COc1ccc([N+]2=NC(c3ccc([N+](=O)[O-])cc3)=NN(c3ccccc3)C2)cc1 : what is it?
(A) 1% (inactive)

(Q) Reported growth inhibition for CCCCN(CCCC)CC(C(C)=O)C(c1ccccc1)c1c(O)c2ccccc2oc1=O (stereo not drawn) : what is it?
(A) 0% (inactive)

(Q) Reported growth inhibition for CCC(=O)OC1CCn2c1nc1c2C(=O)C(C)=C(N2CC2)C1=O (stereo not drawn) : what is it?
(A) 4% (inactive)

(Q) Reported growth inhibition for CC1=C(N2CC2)C(=O)c2ccccc2C1=O : what is it?
(A) -5% (inactive)

(Q) Reported growth inhibition for CC1=C2C(=C[C@@](C)(CO)[C@@H]2O)C(=O)[C@](C)(O)C12CC2 : what is it?
(A) 1% (inactive)

(Q) Reported growth inhibition for CCC1(O)C(=O)OCc2c1cc1n(c2=O)Cc2cc3cc(Cl)ccc3nc2-1 (stereo not drawn) : what is it?
(A) 3% (inactive)

(Q) Reported growth inhibition for O=[N+]([O-])c1cc([As](Br)c2ccc(O)c([N+](=O)[O-])c2)ccc1O : what is it?
(A) 10% (inactive)

(Q) Reported growth inhibition for COC(=O)C1C2c3ccccc3C(c3ccccc32)C1C(=O)OC (stereo not drawn) : what is it?
(A) 7% (inactive)

(Q) Reported growth inhibition for CCS(=O)(=O)[O][Sn]([CH2]C)([CH2]C)[O]S(=O)(=O)CC : what is it?
(A) -47% (inactive)

(Q) Reported growth inhibition for Cn1cnc(N)c1C(=N)[Se] : what is it?
(A) -1% (inactive)

(Q) Reported growth inhibition for NCCc1ccc(OCc2ccccc2)c(OCc2ccccc2)c1 : what is it?
(A) 0% (inactive)

(Q) Reported growth inhibition for Cc1nc2ccccc2cc1C[N+]12CN3CN(CN(C3)C1)C2 : what is it?
(A) 0% (inactive)

(Q) Reported growth inhibition for CCNC(=O)OCC1C2=C(C(=O)C(C)=C(N)C2=O)N2CC3C(N3C)C12OC (stereo not drawn) : what is it?
(A) -19% (inactive)

(Q) Reported growth inhibition for OCC(O)C(O)CO (stereo not drawn) (tested in a mixture with another compound) : what is it?
(A) -4% (inactive)

(Q) Reported growth inhibition for COc1ccc(OC)c(/C=C/[N+](=O)[O-])c1 : what is it?
(A) -6% (inactive)

(Q) Reported growth inhibition for CCCCCCCCCC[Se]C#N : what is it?
(A) -4% (inactive)

(Q) Reported growth inhibition for CCN(CC)CCBr : what is it?
(A) -1% (inactive)

(Q) Reported growth inhibition for C/C(=N\N=C(N)N)C(CN1CCOCC1)C(c1ccccc1)c1c(O)c2ccccc2oc1=O (stereo not drawn) : what is it?
(A) 2% (inactive)

(Q) Reported growth inhibition for CC(=O)O/C(=C1\C[C@H]2[C@@H]3CC=C4C[C@@H](OC(C)=O)CC[C@]4(C)[C@H]3CC[C@]2(C)C1=O)C(F)(F)F : what is it?
(A) -1% (inactive)

(Q) Reported growth inhibition for O=C(/C=C(\c1ccccc1)N1CC1)c1ccccc1 : what is it?
(A) -5% (inactive)
